# TGI per entry
# Tested on: HCT-116 colon
# ASSAY_COMMENT: NCI tumour cell line growth inhibition, 48 h

COMPOUND	RELATION	TGI [µM]
Nc1cc2c(c3ccccc13)C(CCl)CN2C(=O)c1cc2cc(NC(=O)Nc3ccc4[nH]c(C(=O)N5CC(CCl)c6c5cc(N)c5ccccc65)cc4c3)ccc2[nH]1 (stereo not given)	=	1.13
O=c1[nH]nc(-c2ccccc2)n1/N=C/c1ccc([N+](=O)[O-])o1	=	5.55
OCCCCC#Cc1ccccc1C#Cc1ccc(O)cc1	=	31.8
CC1C(NNC(N)=O)Oc2cc3c(cc2C1c1ccccc1O)OCO3 (stereo not given)	=	76.8
Cc1ccc2nc3ccccc3c(NCc3ccc(Cl)cc3)c2c1	=	8.27
COc1ccccc1/C=C1\COc2ccc(-c3ccccc3)cc2C1=O	=	12
CNc1nnc(CCCCCCCCc2nnc(NC)o2)o1	=	41.9
[2H]C([2H])([2H])NC(=O)c1nnc(NC(=O)C2CC2)cc1Nc1cccc(-c2ncn(C)n2)c1OC	>	100
CC1=CC2C(C(O)CC3(C)C2CC(C)C32OCOC23COCO3)C2(C)C/C(=C/O)C(=O)C=C12 (stereo not given)	=	2.97
COc1ccccc1-n1c(=O)n(C)c(=O)n1C(C)(C)C	>	100
[N-]=[N+]=NC(c1cn(C2CC(O)C(CO)O2)c(=O)[nH]c1=O)C(Cl)Br (stereo not given)	>	100
O=C(COc1ccc(OCC(=O)N2C(=O)CC(=O)N(c3ccc(Cl)cc3)C2=S)cc1)N1C(=O)CC(=O)N(c2ccc(Cl)cc2)C1=S	=	25.2
C#CC(O)(c1nc2ccccc2s1)c1nc2ccccc2s1	=	30.2
Cc1ccc(S(=O)(=O)NC(=O)NC(Cc2ccc(O)cc2)C(=O)O)cc1 (stereo not given)	>	100
O=c1[nH]c(=O)n(C2CC(O)C(CO)O2)cc1Oc1ccccc1 (stereo not given)	>	100
c1ccc(-c2nn3c(c2-c2ccnc4cc(OCCN5CCOCC5)ccc24)CCC3)nc1	>	100
COc1cc2cc(C(=O)N3CC(COS(C)(=O)=O)c4ccc(NC(=O)OCc5ccccc5)cc43)[nH]c2c(OC)c1OC (stereo not given)	>	100
O=C(O)CSc1ccccc1C(=O)O	>	100
CN(C)c1ccc(Nc2c3ccccc3nc3ccccc23)cc1	=	1.7
COc1ccc2c(c1)[n+](=O)c(C(=O)c1cccs1)c(C(F)(F)F)n2[O-]	>	50
